measuredAttribute: melting point

Consider the worked cases shown below.
- recordSmiles: "CCN(CC)c1ccc(/C=C/C(=O)CC(=O)/C=C/c2ccc(O)c(OC)c2)c(OCc2ccccc2)c1"
  melting point: "60 to 65 °C"
- recordSmiles: "O=C(/C=C/c1ccc(O)cc1)CC(=O)/C=C/c1ccc2cc[nH]c2c1"
  melting point: "238 to 243 °C"

Dear reader, for each entry below, please note its melting point.
1. CN(C)S(=O)(=O)c1ccccc1/C=C/C(=O)CC(=O)/C=C/c1ccc(O)cc1
2. COc1cc(/C=C/C(=O)CC(=O)/C=C/c2ccc3[nH]ccc3c2)ccc1O
3. COc1ccc(/C=C/C(=O)CC(=O)/C=C/c2ccccc2OC)cc1O

Output:
1. 86 to 90 °C
2. 135 to 138 °C
3. 102 to 108 °C

====

measuredAttribute: melting point

Consider the worked cases shown below.
- recordSmiles: "COc1ccc(/C=C/C(=O)CC(=O)/C=C/c2cn(C)c3ccccc23)cc1O"
  recordedResult: "162 to 166 °C"
- recordSmiles: "O=C(/C=C/c1cc(O)ccc1-c1ccccc1)CC(=O)CCc1ccc(O)cc1"
  recordedResult: "148 to 158 °C"
- recordSmiles: "CCCN(CCC)C(=O)c1cccc(/C=C/C(=O)CC(=O)/C=C/c2ccc(O)cc2)c1"
  recordedResult: "159 to 165 °C"
- recordSmiles: "CC(C)(C)OC(=O)N1CCc2ccc(/C=C/C(=O)CC(=O)/C=C/c3ccc(O)cc3)cc21"
  recordedResult: "111 to 118 °C"
- recordSmiles: "Nc1ccc(O)cc1/C=C/C(=O)CC(=O)/C=C/c1ccc(O)cc1"
  recordedResult: "186 to 192 °C"
- recordSmiles: "COc1cc(/C=C/C(=O)CC(=O)/C=C/c2ccc(O)c(C)c2)ccc1O"
  recordedResult: "173 to 175 °C"
- recordSmiles: "O=C(/C=C/c1ccc(O)cc1)CC(=O)/C=C/c1ccccc1N1CCOCC1"
  recordedResult: "188 to 192 °C"
- recordSmiles: "CS(=O)(=O)N1CCN(c2ccccc2/C=C/C(=O)CC(=O)/C=C/c2ccc(O)cc2)CC1"
  recordedResult: "126 to 131 °C"

Consider now this further molecule.
Input: Which measured melting point value corresponds to COc1ccc(/C=C/C(=O)CC(=O)/C=C/c2ccc([N+](=O)[O-])c(OC)c2)cc1O ?
Output: 196 to 199 °C

====

Please respond with reported melting point for every item in the list.

Consider the worked cases shown below.
- recordSmiles: "O=C(/C=C/c1ccc(O)cc1)CC(=O)/C=C/c1cccc(Br)c1"
  melting point: "156 to 160 °C"
- recordSmiles: "CC(C)(C)OC(=O)N[C@@H](Cc1ccccc1)C(=O)Nc1ccc(/C=C/C(=O)CC(=O)/C=C/c2ccc(O)cc2)cc1"
  melting point: "116 to 121 °C"
- recordSmiles: "O=C(/C=C/c1ccc(O)cc1)CC(=O)/C=C/c1ccccc1C(F)(F)F"
  melting point: "181 to 185 °C"
- recordSmiles: "O=C(/C=C/c1ccc(O)cc1)CC(=O)/C=C/c1ccccn1"
  melting point: "180 to 182 °C"
- recordSmiles: "COc1cc(/C=C/C(=O)CC(=O)/C=C/c2cccc(O)c2O)ccc1O"
  melting point: "82 to 89 °C"

Dear reader, for each entry below, please note its melting point.
1. CN(C)c1ccc(/C=C/C(=O)CC(=O)CCc2ccc(O)cc2)c2ccccc12
2. O=C(/C=C/c1ccc(O)cc1)CC(=O)/C=C/c1cc(O)c(Br)cc1Br
3. COc1cc(/C=C/C(=O)CC(=O)/C=C/c2ccc(O)c(Cl)c2)ccc1O
4. CCN(CC)c1ccc(/C=C/C(=O)CC(=O)/C=C/c2ccc(O)cc2)c(OCc2ccc(OC)cc2)c1

Output:
1: 44 to 49 °C; 2: 255 to 259 °C; 3: 90 to 95 °C; 4: 71 to 78 °C

====

measuredAttribute: melting point

Consider the worked cases shown below.
- recordSmiles: "COc1cc(/C=C/C(=O)CC(=O)/C=C/c2ccc(O)cc2Cl)ccc1O"
  melting point: "185 to 192 °C"
- recordSmiles: "COc1ccc(/C=C/C(=O)CC(=O)/C=C/c2ccc(O)c(F)c2)cc1O"
  melting point: "173 to 176 °C"
- recordSmiles: "COc1cc(/C=C/C(=O)CC(=O)/C=C/c2cc(O)ccc2OC)ccc1O"
  melting point: "75 to 80 °C"
- recordSmiles: "COc1cc(/C=C/C(=O)CC(=O)/C=C/c2ccc(SC)cc2)ccc1O"
  melting point: "147 to 149 °C"
- recordSmiles: "COc1cc(/C=C/C(=O)CC(=O)/C=C/c2ccco2)ccc1O"
  melting point: "48 to 50 °C"
- recordSmiles: "O=C(/C=C/c1ccc(Oc2ccccc2)cc1)CC(=O)/C=C/c1ccc(Oc2ccccc2)cc1"
  melting point: "193 to 196 °C"

Dear reader, for each entry below, please note its melting point.
1. COc1cc(/C=C/C(=O)CC(=O)/C=C/c2ccc(N(C)C)c(OC)c2)ccc1O
2. COc1cc(/C=C/C(=O)CC(=O)/C=C/c2ccc(O)cc2)cc(OC)c1OC

Output:
1. 68 to 75 °C
2. 101 to 105 °C

Dear reader, for each entry below, please note its melting point.
1. COc1cc(/C=C/C(=O)CC(=O)/C=C/c2ccc(O)c(F)c2)ccc1O
2. CCN(CC)c1ccc(/C=C/C(=O)CC(=O)/C=C/c2ccc(O)cc2)c(OCc2ccc(C(C)(C)C)cc2)c1
3. COc1ccc(/C=C/C(=O)CC(=O)/C=C/c2ccc(N(C)C)cc2[N+](=O)[O-])cc1O
4. O=C(/C=C/c1ccc(O)cc1)CC(=O)/C=C/c1cc(Cl)cc(Cl)c1O

Output:
1: 186 to 189 °C; 2: 187 to 190 °C; 3: 183 to 186 °C; 4: 199 to 201 °C

====

Please respond with reported melting point for every item in the list.

Dear reader, for each entry below, please note its melting point.
1. O=C(/C=C/c1ccc(O)cc1)CC(=O)/C=C/c1ccc(Br)cc1F [CU471]
2. COc1ccc(/C=C/C(=O)CC(=O)/C=C/c2ccc(OC)c(O)c2)c(OC)c1 [CU074]
3. O=C(/C=C/c1ccc(O)cc1)CC(=O)/C=C/c1cccc(-c2ccccc2)c1 [CU504]

Output:
1: 223 to 232 °C; 2: 64 to 70 °C; 3: 176 to 182 °C

====

measuredAttribute: melting point

Consider the worked cases shown below.
- recordSmiles: "COc1ccc(/C=C/C(=O)CC(=O)/C=C/c2ccc(Oc3ccccc3)cc2)cc1O"
  recordedResult: "185 to 187 °C"
- recordSmiles: "CSc1ccccc1/C=C/C(=O)CC(=O)/C=C/c1ccc(O)cc1"
  recordedResult: "157 to 160 °C"

Dear reader, for each entry below, please note its melting point.
1. O=C(/C=C/c1ccc(O)cc1)CC(=O)/C=C/c1c[nH]c2ccccc12
2. COc1ccc(/C=C/C(=O)CC(=O)/C=C/c2ccc(OCCCN(C)C)cc2)cc1O

Output:
1: 215 to 220 °C; 2: 183 to 186 °C

====

Target: Aβ1-42 (Homo sapiens (Human), UniProt P05067)
Sequence (P05067 672-713): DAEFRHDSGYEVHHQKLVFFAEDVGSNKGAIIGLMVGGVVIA
Assay: Aβ aggregation inhibition assay, thioflavin T fluorescence (Test Example 2)
Details: 24 hr at 37° C.
Please respond with reported pIC50 for every item in the list.
Answers are plain numbers, as −log10 of the molar value.

Consider the worked cases shown below.
- recordSmiles: "COc1ccc(O)cc1/C=C/C(=O)CC(=O)/C=C/c1ccc(O)cc1"
  systemName: "Aβ1-42 (Homo sapiens (Human), UniProt P05067)"
  pIC50: 5.96
- recordSmiles: "O=C(/C=C/c1ccc(O)cc1)CC(=O)/C=C/c1cccc(O)c1"
  systemName: "Aβ1-42 (Homo sapiens (Human), UniProt P05067)"
  pIC50: 7.05
- recordSmiles: "COc1cc(N(C)C)ccc1/C=C/C(=O)CC(=O)/C=C/c1ccc(O)cc1"
  systemName: "Aβ1-42 (Homo sapiens (Human), UniProt P05067)"
  pIC50: 6.06

Input: Test system Aβ1-42 (Homo sapiens (Human), UniProt P05067); read-out pIC50; what value for Cc1ccc(/C=C/C(=O)CC(=O)/C=C/c2ccc(O)cc2)cc1C ?
Output: 6.55

====

Please respond with reported melting point for every item in the list.

Consider the worked cases shown below.
- compound: "CN(C)c1cc(Br)ccc1/C=C/C(=O)CC(=O)/C=C/c1ccc(O)cc1 [CU533]"
  recordedResult: "74 to 81 °C"
- compound: "COc1cc(/C=C/C(=O)CC(=O)/C=C/c2ccc(N(C)C)cc2Cl)ccc1O [CU196]"
  recordedResult: "113 to 120 °C"
- compound: "O=C(/C=C/c1ccc(O)cc1)CC(=O)/C=C/c1ccccc1N1CCCC1 [CU496]"
  recordedResult: "73 to 80 °C"
- compound: "CSc1ccc(/C=C/C(=O)CC(=O)/C=C/c2ccc(O)cc2)cc1 [CU235]"
  recordedResult: "169 to 171 °C"
- compound: "Cc1ccc(Oc2ccc(/C=C/C(=O)CC(=O)/C=C/c3ccc(O)cc3)cn2)cc1 [CU333]"
  recordedResult: "167 to 172 °C"

Dear reader, for each entry below, please note its melting point.
1. COc1ccc(/C=C/C(=O)CC(=O)/C=C/c2cc(O)ccc2O)cc1O [CU091]
2. Nc1ccc(OCc2ccccc2)cc1/C=C/C(=O)CC(=O)/C=C/c1ccc(O)cc1 [CU489]
3. O=C(/C=C/c1ccc2[nH]ccc2c1)CC(=O)/C=C/c1ccc2[nH]ccc2c1 [CU382]

Output:
1: 115 to 121 °C; 2: 175 to 179 °C; 3: 263 to 266 °C
